All values here come from PubChem BioAssay (NCI).

Assign TGI to each entry below.
- System: EKVX NSCLC
- PROTOCOL: NCI tumour cell line growth inhibition, 48 h

CCN(CC)c1ccc(/C=N/NC(=O)CSc2nc3ccccc3c(=O)n2Cc2ccc(S(N)(=O)=O)cc2)c(O)c1 | > 100 µM
O=C(O)Cn1ccc2ccccc21 | > 100 µM
CN(C)CCCCCNc1c2ccccc2nc2cccc([N+](=O)[O-])c12 | 0.0128 µM

Please give TGI, item by item, for the list that follows.
1. COc1cc2nc(-c3cccc4cccnc34)nc(NC3CCN(Cc4ccccc4)CC3)c2cc1OC
2. O=c1[nH]nc(-c2ccc(F)cc2)cc1-c1ccccc1

Result:
1: 3.3 µM; 2: > 100 µM

Please give TGI, item by item, for the list that follows.
1. COc1ccc(/C(Cl)=C(\C=O)c2ccc(Cl)cc2)cc1OC
2. Nc1c2cc3ccc2nc2ccc(cc12)OCCOCCOCCOCCOCCOCCO3
3. CC1(C)OC2OC(COC(=O)c3ccc(C#N)cc3)C3OC(C)(C)OC3C2O1 (centres undefined)

Result:
["> 100 µM", "> 10 µM", "> 75 µM"]

Please give TGI, item by item, for the list that follows.
1. COc1cc(-c2nccc3cc4c(cc23)OCO4)cc(OC)c1OC
2. C1=NCCOCCN=Cc2ccc(cc2)OCc2cccc(n2)COc2ccc1cc2
3. COc1cccc2nc3c(C(=O)NCCN(C)C)cccc3nc12

Result:
> 100 µM
> 100 µM
40.5 µM

Please give TGI, item by item, for the list that follows.
1. CCC[CH2][Sn]([CH2]CCC)([O]C(=O)c1cccc(F)c1F)[O]C(=O)c1cccc(F)c1F
2. O=C(Nc1ccc2cc3ccccc3cc2c1)c1cc2c(cc1Cl)Sc1nccn1S2(=O)=O

Result:
2.71 µM
> 100 µM

###

- System: SN12C renal
- PROTOCOL: NCI tumour cell line growth inhibition, 48 h
PROPERTY NAME: TGI (µM)
Numbers only, in µM.

C=CC[C@]1(C2=NC(C)(C)CO2)c2ccccc2-c2ccccc2[C@H]1C(C)=O | 30.8
COc1ccc2oc(C(=O)N3CC(CCl)c4ccc(N)cc43)cc2c1 (centres undefined) | 8.5
O=C1Nc2ccccc2/C1=C/c1cn(CC(O)Cn2cc(/C=C3\C(=O)Nc4ccccc43)c3ccccc32)c2ccccc12 (centres undefined) | 3.16
COc1ccccc1C1C(C#N)=C(N)Oc2cc(O)ccc21 (centres undefined) | 31.1
CCOc1cc(-c2nc3cc(F)ccc3s2)ccc1O | 35.6
c1ccc(C2CC(c3ccc4ccccc4c3)=Nc3ccccc3S2)cc1 (centres undefined) | 30.4

Please give TGI, item by item, for the list that follows.
1. CC(C)=C1CCC(CN2CCOCC2)C1=O (centres undefined)
2. Cc1c(C)c2c(c(C)c1OCC(=O)O)CC[C@@](C)(CCC[C@@H](C)CCC[C@@H](C)CCCC(C)C)O2

Result:
16.7
176

###

- System: MALME-3M melanoma
- PROTOCOL: NCI tumour cell line growth inhibition, 48 h
Assign TGI to each entry below.

Reference set (2 entries):
O=C(NC(=O)c1cn(CCN2CCN(C(=O)NCCCCCCNC(=O)N3CCN(CCn4cc(C(=O)NC(=O)OCc5ccccc5)c(=O)[nH]c4=O)CC3)CC2)c(=O)[nH]c1=O)OCc1ccccc1 | > 100 µM
CC1(C)OC2OC(COC(=O)c3ccc(C#N)cc3)C3OC(C)(C)OC3C2O1 (centres undefined) | > 75 µM

Please give TGI, item by item, for the list that follows.
1. Cc1cc2nnc(C(N)=O)c(N)c2cc1C
2. C[n+]1ccccc1/C1=c2\cc/c([nH]2)=C(\c2cccc[n+]2C)C2=N/C(=C(/c3cccc[n+]3C)C3C=CC(N3)/C(c3cccc[n+]3C)=C3/C=CC1=N3)C=C2

Result:
1. > 100 µM
2. > 100 µM

###

Assign TGI to each entry below.
- Test system: SK-MEL-5 melanoma
- PROTOCOL: NCI tumour cell line growth inhibition, 48 h

Cc1ccc(O)c(NC2=C(Cl)C(=O)N(Cc3ccccc3)C2=O)c1 | 40.7 µM

Please give TGI, item by item, for the list that follows.
1. COc1ccc(/C(Cl)=C(\C=O)c2ccc(Cl)cc2)cc1OC
2. COc1cc(Nc2ncnc(Nc3ccc4c(n3)NC(=O)C(C)(C)O4)n2)cc(OC)c1OC
3. C=C(C)C(=O)OC1C[C@H](COC(C)=O)C2CC=C(CO)C2C2OC(=O)C(=C)[C@H]12 (stereo partly drawn)
4. CCCCCCCCCCOC(=O)c1cc[n+](C)cc1

Result:
1. > 100 µM
2. > 100 µM
3. > 100 µM
4. 33.6 µM

Please give TGI, item by item, for the list that follows.
1. Cc1cc(C)nc(NS(=O)(=O)c2ccc(NC(=O)c3cc([N+](=O)[O-])cc([N+](=O)[O-])c3)cc2)n1
2. CC(=O)NC1C(OCc2ccccc2)OC(CO)C(O)C1OCC(=O)N[C@@H](C)C(=O)N[C@H](CCC(=O)NCCNc1ccc([N+](=O)[O-])c2[nH]c3ccccc3c(=O)c12)C(N)=O (stereo partly drawn)

Result:
1: > 100 µM; 2: > 100 µM

Please give TGI, item by item, for the list that follows.
1. CCc1nc2cc(/C=C/C(=O)NO)ccc2c(=O)n1CCc1ccc(OC)cc1
2. CC(CC[C@@]1(O)OC2C[C@H]3[C@@H]4CC[C@H]5CC(OC6OC(CO)C(OC7OC(CO)C(O)C(OC8OCC(O)C(O)C8O)C7OC7OC(CO)C(O)C(O)C7O)C(O)C6O)[C@H](O)CC5(C)[C@H]4CCC3(C)C2[C@@H]1C)COC1OC(CO)C(O)C(O)C1O (stereo partly drawn)
3. CNC(=S)/C(C#N)=C(\N)N1CCCC1

Result:
["5.09 µM", "17.7 µM", "> 100 µM"]

Please give TGI, item by item, for the list that follows.
1. CCn1c(CSc2nc(-c3ccccc3)c(-c3ccccc3)[nH]2)n[nH]c1=S
2. C#CC(O)/C=C/C(O)CCCC(O)CC#CC(O)C#CCCCCC(O)/C=C/CCCC(O)/C=C/CCCCCCCCCCCCCC(O)C(O)C#CC(=O)O (stereo not drawn)
3. COc1ccc(CCN2C(=O)CC34C=CC(CC3C2=O)O4)cc1OC (stereo not drawn)

Result:
1: > 100 µM; 2: > 25 µM; 3: > 100 µM

###

- Tested on: UO-31 renal
- PROTOCOL: NCI tumour cell line growth inhibition, 48 h
PROPERTY NAME: TGI (µM)
One number for each entry, in µM.

CC(C)=C1CCC(CN2CCOCC2)C1=O (stereo not given) | 32.6

// switching to the query molecule
Entry Clc1ccc(OCc2nnc3n2N=C(c2ccccc2)CS3)c(Cl)c1 : TGI on UO-31 renal = 8.46

###

- System: NCI-H226 lung
- PROTOCOL: NCI tumour cell line growth inhibition, 48 h
PROPERTY NAME: TGI

O=C(Nc1ccc2cc3ccccc3cc2c1)c1cc2c(cc1Cl)Sc1nccn1S2(=O)=O | > 100 µM
CCC[CH2][Sn]([CH2]CCC)([CH2]CCC)[O]C(=O)C(OC)c1ccccc1 (stereo not given) | 0.252 µM
N#Cc1c(-c2ccccc2)cc(Nc2ccc(Cl)cc2)n2c1nc1ccccc12 | > 100 µM
O=c1[nH]c(=O)n([C@@H]2O[C@H](CO)[C@@H](O)[C@@H]2F)cc1I | > 100 µM
NC(=S)N/N=C1/CN(c2ccc(Cl)c(Cl)c2)CC(=O)C1c1nc2ccccc2s1 (stereo not given) | > 100 µM

Please give TGI, item by item, for the list that follows.
1. COC(=O)N/N=C(\C)C(CN(C)C)C(c1ccccc1)c1c(O)c2ccccc2oc1=O (stereo not given)
2. CNCCCNc1c2ccccc2nc2cccc([N+](=O)[O-])c12

Result:
1: > 100 µM; 2: 0.0521 µM

Please give TGI, item by item, for the list that follows.
1. Cc1cc2c(cc1CO)N1Cc3cc(C)c(CO)cc3N(C2)C1
2. COc1cc(Nc2ncnc(Nc3ccc4c(n3)NC(=O)C(C)(C)O4)n2)cc(OC)c1OC
3. CC[C@@H](O)C[C@H]1CCC[C@@]2(C[C@@H]3OC(=O)/C=C/[C@@](C)(O)[C@@H](O)[C@H](C)[C@@H](O)[C@H](OC4CCC(N(C)C)C(C)O4)[C@@H](O)[C@](C)(O)CCCCC/C=C/[C@@H]4CC(C)(C)O[C@@]4(O)C[C@H](O2)[C@H]3C)O1 (stereo not given in full)

Result:
> 100 µM
> 100 µM
29.6 µM

Please give TGI, item by item, for the list that follows.
1. C=C(C)C(=O)OC1C[C@H](COC(C)=O)C2CC=C(CO)C2C2OC(=O)C(=C)[C@H]12 (stereo not given in full)
2. OC12c3ccccc3C1CCCCCC21OCCCO1 (stereo not given)
3. COc1cc2c3c(c1OC)C(=O)C=C3N(S(=O)(=O)c1ccc(C)cc1)CC2

Result:
> 100 µM
> 100 µM
> 100 µM
